# Test system: NCI-H292
# Test Method Notes: cells
# Type: functional, cell-based
# Assay Setup: Homo sapiens, NCI-H292, 72 h
# Description: Growth inhibition of human NCI-H292 cells in LDL depleted FBS containing medium after 72 hrs using compound after sonication in presence of LDL by MTT assay
pIC50: −log10 of the molar value.
Assay Endpoint: pIC50

[
  {
    "Structure Smiles": "Nc1ccc(NC(=O)CCCCCCC(=O)NO)cc1",
    "Assay Endpoint": "pIC50",
    "Readout Value": 5.11
  },
  {
    "Structure Smiles": "CC(C)CCC[C@@H](C)[C@H]1CC[C@H]2[C@@H]3CC=C4C[C@@H](OC(=O)Nc5ccc(NC(=O)CCCCCCC(=O)NO)cc5)CC[C@]4(C)[C@H]3CC[C@]12C",
    "Assay Endpoint": "pIC50",
    "Readout Value": 4.04
  }
]
